System: P. berghei
experimental-protocol: Prophylactic activity against P. berghei in vivo (mice dosed before infection)
experimental-context: single 30 mg/kg oral dose 24 h prior to infection; n=5 mice
test-readout: Cures 24 h prior to infection (30 mg/kg)

[[record]]
compound = "CS(=O)(=O)O.c1cc([C@H]2CC[C@]3(CC2)OOC2(O3)C3CC4CC(C3)CC2C4)ccc1OCCCN1CCOCC1 (stereo partly shown)"
value_reported = "5/5"

[[record]]
compound = "CS(=O)(=O)N1CCN(CCCOc2ccc([C@H]3CC[C@]4(CC3)OOC3(O4)C4CC5CC(C4)CC3C5)cc2)CC1.Cc1ccc(S(=O)(=O)O)cc1 (stereo partly shown)"
value_reported = "3/5"

[[record]]
compound = "O[C@H]1CC[C@@H](C2CCC3(CC2)OOC2(O3)C3CC4CC(C3)CC2C4)CC1 (stereo partly shown)"
value_reported = "4/5"

[[record]]
compound = "CS(=O)(=O)O.c1cc(C2CCC3(CC2)OOC2(O3)C3CC4CC(C3)CC2C4)ccc1OCCN1CCSCC1 (stereo not shown)"
value_reported = "3/5"


---

experimental-protocol: Pharmacokinetic studies in rats (oral)
Assay type: in vivo, rat
experimental-context: oral 10 mg/kg
test-readout: In Vivo Oral t1/2 at 10 mg/kg (h)

[[record]]
compound = "CS(=O)(=O)O.c1cc([C@H]2CC[C@]3(CC2)OOC2(O3)C3CC4CC(C3)CC2C4)ccc1OC1CCNCC1 (some centres unmarked) [OZ429]"
test_readout = "In Vivo Oral t1/2 at 10 mg/kg"
value_reported = 5.3

[[record]]
compound = "NC[C@H]1CC[C@]2(CC1)OOC1(O2)C2CC3CC(C2)CC1C3 (some centres unmarked) [OZ209, reference compound]"
test_readout = "In Vivo Oral t1/2 at 10 mg/kg"
value_reported = 1.2

[[record]]
compound = "NCCOc1ccc([C@H]2CC[C@]3(CC2)OO[C@]2(O3)C3CC4CC(C3)CC2C4)cc1 [OZ323, reference compound]"
test_readout = "In Vivo Oral t1/2 at 10 mg/kg"
value_reported = 5.2

[[record]]
compound = "CS(=O)(=O)N1CCN(CCCOc2ccc([C@H]3CC[C@]4(CC3)OOC3(O4)C4CC5CC(C4)CC3C5)cc2)CC1.Cc1ccc(S(=O)(=O)O)cc1 (some centres unmarked) [OZ482]"
test_readout = "In Vivo Oral t1/2 at 10 mg/kg"
value_reported = 9.6

[[record]]
compound = "CC(C)(N)CNC(=O)C[C@H]1CC[C@]2(CC1)OO[C@]1(O2)C2CC3CC(C2)CC1C3 [OZ277, reference compound]"
test_readout = "In Vivo Oral t1/2 at 10 mg/kg"
value_reported = 1.6


---

Tested on: P. berghei
experimental-protocol: Prophylactic activity against P. berghei in vivo (mice dosed before infection)
experimental-context: single 30 mg/kg oral dose 24 h prior to infection; parasitemia day 3 post-infection
test-readout: Activity (%) 24 h prior to infection (30 mg/kg)

[[record]]
compound = "CC(C)(O)CNCCCOc1ccc([C@H]2CC[C@]3(CC2)OOC2(O3)C3CC4CC(C3)CC2C4)cc1.Cc1ccc(S(=O)(=O)O)cc1 (stereo partly drawn)"
tested_on = "P. berghei"
unit_string = "%"
inequality_sign = ">"
value_reported = 99.9

[[record]]
compound = "CS(=O)(=O)O.NC1CCC(Oc2ccc(C3CCC4(CC3)OOC3(O4)C4CC5CC(C4)CC3C5)cc2)CC1 (stereo not drawn) [OZ537]"
tested_on = "P. berghei"
unit_string = "%"
inequality_sign = ">"
value_reported = 99.9

[[record]]
compound = "CS(=O)(=O)O.c1cc(C2CCC3(CC2)OOC2(O3)C3CC4CC(C3)CC2C4)ccc1OCCN1CCSCC1 (stereo not drawn)"
tested_on = "P. berghei"
unit_string = "%"
inequality_sign = "="
value_reported = 99.8

[[record]]
compound = "C[C@H]1[C@H](OC(=O)CCC(=O)O)O[C@@H]2O[C@@]3(C)CC[C@H]4[C@H](C)CC[C@@H]1[C@@]24OO3 [AS, artesunate, reference compound]"
tested_on = "P. berghei"
unit_string = "%"
inequality_sign = "="
value_reported = 21

[[record]]
compound = "CS(=O)(=O)O.NC1CCC(Oc2ccc(C3CCC4(CC3)OOC3(O4)C4CC5CC(C4)CC3C5)cc2)CC1 (stereo not drawn) [OZ493]"
tested_on = "P. berghei"
unit_string = "%"
inequality_sign = ">"
value_reported = 99.9

[[record]]
compound = "NCCOc1ccc([C@H]2CC[C@]3(CC2)OO[C@]2(O3)C3CC4CC(C3)CC2C4)cc1 [OZ323, reference compound]"
tested_on = "P. berghei"
unit_string = "%"
inequality_sign = "="
value_reported = 99.7


---

Listed compounds paired with reported NOAEL for embryonic RBCs
Test system: Embryonic red blood cells (RBCs)
experimental-protocol: Rat whole embryo culture (WEC) model, embryotoxicity
test-readout: NOAEL for embryonic RBCs (µg/mL)

[[record]]
compound = "C[C@H]1[C@@H](O)O[C@@H]2O[C@@]3(C)CC[C@H]4[C@H](C)CC[C@@H]1[C@@]24OO3 [dihydroartemisinin]"
test_readout = "NOAEL for embryonic RBCs"
value_reported = 0.01

[[record]]
compound = "CC(C)(N)CNC(=O)C[C@H]1CC[C@]2(CC1)OO[C@]1(O2)C2CC3CC(C2)CC1C3 [OZ277, reference compound]"
test_readout = "NOAEL for embryonic RBCs"
value_reported = 0.2

[[record]]
compound = "CS(=O)(=O)O.c1cc(C2CCC3(CC2)OOC2(O3)C3CC4CC(C3)CC2C4)ccc1OCCN1CCOCC1 (centres unmarked) [OZ439]"
test_readout = "NOAEL for embryonic RBCs"
value_reported = 5

[[record]]
compound = "C[C@@H]1CC[C@H]2[C@@H](C)C(=O)O[C@@H]3O[C@@]4(C)CC[C@@H]1[C@]32OO4 [artemisinin]"
test_readout = "NOAEL for embryonic RBCs"
value_reported = 0.1

[[record]]
compound = "CS(=O)(=O)O.NC1CCC(Oc2ccc(C3CCC4(CC3)OOC3(O4)C4CC5CC(C4)CC3C5)cc2)CC1 (centres unmarked) [OZ493]"
test_readout = "NOAEL for embryonic RBCs"
value_reported = 1


---

experimental-protocol: Pharmacokinetic studies in rats (oral)
Assay type: in vivo, rat
experimental-context: oral 10 mg/kg, relative to an IV dose
Outcome: yes for Oral Bioavailability at 10 mg/kg (%) of at least 70%; no for anything lower.

[[record]]
compound = "NC[C@H]1CC[C@]2(CC1)OOC1(O2)C2CC3CC(C2)CC1C3 (stereo partly shown) [OZ209, reference compound]"
class_assignment = "no"

[[record]]
compound = "CC(C)(N)CNC(=O)C[C@H]1CC[C@]2(CC1)OO[C@]1(O2)C2CC3CC(C2)CC1C3 [OZ277, reference compound]"
class_assignment = "no"

[[record]]
compound = "NCCOc1ccc([C@H]2CC[C@]3(CC2)OO[C@]2(O3)C3CC4CC(C3)CC2C4)cc1 [OZ323, reference compound]"
class_assignment = "yes"

[[record]]
compound = "CS(=O)(=O)O.c1cc(C2CCC3(CC2)OOC2(O3)C3CC4CC(C3)CC2C4)ccc1OCCN1CCOCC1 (stereo not shown)"
class_assignment = "yes"

[[record]]
compound = "CS(=O)(=O)N1CCN(CCCOc2ccc([C@H]3CC[C@]4(CC3)OOC3(O4)C4CC5CC(C4)CC3C5)cc2)CC1.Cc1ccc(S(=O)(=O)O)cc1 (stereo partly shown)"
class_assignment = "yes"

[[record]]
compound = "CS(=O)(=O)O.c1cc([C@H]2CC[C@]3(CC2)OOC2(O3)C3CC4CC(C3)CC2C4)ccc1OC1CCNCC1 (stereo partly shown)"
class_assignment = "yes"


---

System: P. berghei
experimental-protocol: Prophylactic activity against P. berghei in vivo (mice dosed before infection)
experimental-context: single 30 mg/kg oral dose 24 h prior to infection; n=5 mice
Listed compounds paired with reported Cures 24 h prior to infection (30 mg/kg)
test-readout: Cures 24 h prior to infection (30 mg/kg)

[[record]]
compound = "Cc1ccc(S(=O)(=O)O)cc1.O[C@H]1CC[C@H](NCCCOc2ccc([C@H]3CC[C@]4(CC3)OOC3(O4)C4CC5CC(C4)CC3C5)cc2)CC1 (stereo partly shown) [OZ535]"
test_readout = "Cures 24 h prior to infection (30 mg/kg)"
value_reported = "0/5"

[[record]]
compound = "CS(=O)(=O)O.NC1CCC(Oc2ccc(C3CCC4(CC3)OOC3(O4)C4CC5CC(C4)CC3C5)cc2)CC1 (stereo not shown) [OZ493]"
test_readout = "Cures 24 h prior to infection (30 mg/kg)"
value_reported = "3/5"

[[record]]
compound = "CC(C)(N)CCOc1ccc(C2CCC3(CC2)OOC2(O3)C3CC4CC(C3)CC2C4)cc1.Cc1ccc(S(=O)(=O)O)cc1 (stereo not shown) [OZ539]"
test_readout = "Cures 24 h prior to infection (30 mg/kg)"
value_reported = "4/5"

[[record]]
compound = "CS(=O)(=O)O.NC1CCC(Oc2ccc(C3CCC4(CC3)OOC3(O4)C4CC5CC(C4)CC3C5)cc2)CC1 (stereo not shown) [OZ537]"
test_readout = "Cures 24 h prior to infection (30 mg/kg)"
value_reported = "5/5"

[[record]]
compound = "CC(C)(CN)Oc1ccc(C2CCC3(CC2)OOC2(O3)C3CC4CC(C3)CC2C4)cc1.CS(=O)(=O)O (stereo not shown) [OZ453]"
test_readout = "Cures 24 h prior to infection (30 mg/kg)"
value_reported = "0/5"

[[record]]
compound = "CS(=O)(=O)O.NCCCCCOc1ccc(C2CCC3(CC2)OOC2(O3)C3CC4CC(C3)CC2C4)cc1 (stereo not shown) [OZ498]"
test_readout = "Cures 24 h prior to infection (30 mg/kg)"
value_reported = "4/5"

[[record]]
compound = "CS(=O)(=O)O.c1cc([C@H]2CC[C@]3(CC2)OOC2(O3)C3CC4CC(C3)CC2C4)ccc1OC1CCNCC1 (stereo partly shown) [OZ429]"
test_readout = "Cures 24 h prior to infection (30 mg/kg)"
value_reported = "2/5"

